// data source = ChEMBL document CHEMBL1135293

Target: Bone morphogenetic protein 1 (Homo sapiens, UniProt P13497)
Sequence (P13497 whole entry): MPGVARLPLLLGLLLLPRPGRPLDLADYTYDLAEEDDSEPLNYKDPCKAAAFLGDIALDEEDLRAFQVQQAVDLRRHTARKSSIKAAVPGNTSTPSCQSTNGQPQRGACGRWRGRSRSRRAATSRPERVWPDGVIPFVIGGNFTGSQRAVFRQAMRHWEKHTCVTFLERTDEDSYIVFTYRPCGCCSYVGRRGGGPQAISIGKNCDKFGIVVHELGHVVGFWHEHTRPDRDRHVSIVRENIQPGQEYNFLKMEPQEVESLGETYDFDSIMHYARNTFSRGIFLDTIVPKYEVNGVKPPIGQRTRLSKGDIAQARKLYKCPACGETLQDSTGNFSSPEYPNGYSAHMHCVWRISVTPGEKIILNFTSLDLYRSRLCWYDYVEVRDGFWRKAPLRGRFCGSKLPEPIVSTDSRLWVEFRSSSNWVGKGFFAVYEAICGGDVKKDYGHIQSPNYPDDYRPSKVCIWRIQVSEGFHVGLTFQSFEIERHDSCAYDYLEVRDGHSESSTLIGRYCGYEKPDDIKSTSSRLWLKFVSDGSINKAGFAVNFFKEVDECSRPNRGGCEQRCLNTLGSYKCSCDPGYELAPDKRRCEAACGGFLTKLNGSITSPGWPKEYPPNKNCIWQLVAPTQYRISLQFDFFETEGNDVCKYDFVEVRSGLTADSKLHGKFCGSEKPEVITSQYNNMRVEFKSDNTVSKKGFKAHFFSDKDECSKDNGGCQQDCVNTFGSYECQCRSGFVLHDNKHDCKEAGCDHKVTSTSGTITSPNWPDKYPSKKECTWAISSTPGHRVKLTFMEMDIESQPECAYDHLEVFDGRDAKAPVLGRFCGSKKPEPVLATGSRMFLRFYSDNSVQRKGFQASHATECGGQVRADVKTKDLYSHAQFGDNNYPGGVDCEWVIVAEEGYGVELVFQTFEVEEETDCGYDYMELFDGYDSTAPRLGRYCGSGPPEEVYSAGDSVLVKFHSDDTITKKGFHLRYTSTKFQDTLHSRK
Assay: Inhibitory activity against Procollagen C-Proteinase (PCP)
measured-metric: pIC50
// field semantics: pIC50 = negative decimal log of concentration (mol/L)

Example entries and their recorded answers appear below.
COc1ccc(S(=O)(=O)N(Cc2ccc(Br)cc2)[C@H](Cc2cccs2)C(=O)NO)cc1: 7.15
COc1ccc(CSC[C@H](C(=O)NO)N(Cc2ccc3c(c2)OCO3)S(=O)(=O)c2ccc(OC)cc2)cc1: 7.49
COc1ccc(C[C@H](C(=O)NO)N(Cc2ccc3c(c2)OCO3)S(=O)(=O)c2ccc(OC)cc2)cc1: 7.40
COc1ccc(S(=O)(=O)N(Cc2sccc2Oc2ccccc2)[C@H](C)C(=O)NO)cc1: 7.40
COc1ccc(S(=O)(=O)N(Cc2ccc3cc(C)ccc3c2)[C@H](C)C(=O)NO)cc1: 6.66

Exam item: Request the reported pIC50 associated with COc1ccc(S(=O)(=O)N(Cc2ccc3c(c2)OCO3)[C@H](Cc2cccs2)C(=O)NO)cc1 (stereo in doubt; 41)
Marked response: 9.70

Exam item: Requested field: pIC50. Item: COc1ccc(S(=O)(=O)N(Cc2ccc3c(c2)OCO3)[C@H](Cc2cccs2)C(=O)NO)cc1 (stereo in doubt; 2)
Marked response: 9.70
